- test: AUC (0 to t) in fasted Cynomolgus monkey at 11.6 mg/kg, po by LC-MS/MS analysis
- Assay type: ADME, organism-based, Macaca fascicularis
- reported.conditions: in vivo
assay.metric: AUC(0-t) (ng·h/mL)
Give bare numbers, in ng·h/mL.

compound CC(C)C(=O)OC[C@@]1(F)O[C@@H](n2ccc(=O)n(COC(=O)c3cccnc3)c2=O)[C@H](OC(=O)C(C)C)[C@@H]1OC(=O)C(C)C , AUC(0-t) observed: 15100

* * *

- test: Cmax in fasted Sprague-Dawley rat at 23 mg/kg, po by LC-MS/MS analysis
- Format: ADME, organism-based
- reported.conditions: in vivo
assay.metric: Cmax (ng/mL)
Numbers only, in ng/mL.

molecule CC(C)C(=O)OC[C@@]1(F)O[C@@H](n2ccc(=O)n(COC(=O)c3cccnc3)c2=O)[C@H](OC(=O)C(C)C)[C@@H]1OC(=O)C(C)C , Cmax observed: 1230
